# study-target: Human neutrophil elastase (HNE) (Homo sapiens, UniProt P08246)
# Construct: HNE purified from purulent human sputum (Elastin Products Company, Owensville, MO, USA)
# Sequence (P08246 30-247 limits assumed): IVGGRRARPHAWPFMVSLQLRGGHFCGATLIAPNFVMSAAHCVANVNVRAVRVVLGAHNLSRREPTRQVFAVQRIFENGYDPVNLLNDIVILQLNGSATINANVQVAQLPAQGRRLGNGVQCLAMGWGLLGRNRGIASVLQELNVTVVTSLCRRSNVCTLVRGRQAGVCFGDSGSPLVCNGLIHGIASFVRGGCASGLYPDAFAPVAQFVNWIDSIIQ
# assay-notes: Inhibition of HNE proteolysis by peptide aldehyde inhibitors
# setup-conditions: 10 nM active HNE, 100 nM Ac-RM(O2)AA-pNA substrate (Figure 3); 20 min complex formation at RT; 405 nm; Morrison equation for tight-binding inhibitors; three replicate experiments of triplicate measurements
Square brackets hold non-standard residues; d marks the D form. Peptide text beside a SMILES is read from it. Met(O2) = CS(=O)(=O)CC[C@H](N)C(=O)O; Met(O) = CS(=O)CC[C@H](N)C(=O)O
Could you please report measured Ki for the items listed next?

[in] Return Ki measured with Human neutrophil elastase (HNE) (Homo sapiens, UniProt P08246) given this molecule: CSCC[C@H](NC(=O)[C@H](CCCNC(=N)N)NC(C)=O)C(=O)N[C@@H](C)C(=O)N[C@H](C=O)C(C)C [Ac-RMAV-H] (Ac-RMAV-aldehyde)
[out] 7.27 µM

[in] Return Ki measured with Human neutrophil elastase (HNE) (Homo sapiens, UniProt P08246) given this molecule: CC(=O)N[C@@H](CCCNC(=N)N)C(=O)N[C@@H](CC[S+](C)[O-])C(=O)N[C@@H](C)C(=O)N[C@H](C=O)C(C)C (stereo partly drawn) [Ac-RM(O)AV-H] (Ac-R[Met(O)]AV-aldehyde)
[out] 5.55 µM

[in] Return Ki measured with Human neutrophil elastase (HNE) (Homo sapiens, UniProt P08246) given this molecule: CC(=O)N[C@@H](CCCNC(=N)N)C(=O)N[C@@H](CCS(C)(=O)=O)C(=O)N[C@@H](C)C(=O)N[C@H](C=O)C(C)C [Ac-RM(O2)AV-H] (Ac-R[Met(O2)]AV-aldehyde)
[out] 0.147 µM
